Data origin, for the record: paper PMC9482650

biological target: MAGI1_1, Q96QZ7; experiment: holdup assay; set-up: key: below the threshold = too weak to quantify, mostly under pKd 3.1 to 4; settings: plain residues with an end cap or a label only (N-terminal biotin on a linker: ado-ado)
Sequence (Q96QZ7 1-106): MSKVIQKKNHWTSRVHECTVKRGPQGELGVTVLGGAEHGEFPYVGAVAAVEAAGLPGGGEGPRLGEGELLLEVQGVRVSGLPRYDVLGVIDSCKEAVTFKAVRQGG
Endpoint name: pKd

Some entries whose results are on file:
TNSKQGETTV [FZD1, Q9UP38]; below the threshold
KEKASTETEC [TRPM1, Q7Z4N2]; below the threshold
KLQNPNQSVV [TYRP1, P17643]; below the threshold
SSSVNVSSNL [CXCR1, P25024]; below the threshold
SQDPKKPSRV [CBY2, Q8NA61]; 3.49

Q) Returns the measured pKd for the input binder. Input: PKSNSSKEYV [CLDN7, O95471]
A) below the threshold

Q) NKSEPFLTWL [WWTR1, Q9GZV5] , same question.
A) 3.69

Q) FHSIKQSTAV [CRHR1, P34998] , same question.
A) below the threshold
